Kindly state β-Lactamase inhibition for each of the entries shown.
System: Agr P3 promoter
Experiment: Agr P3-β-lactamase fusion screen: β-lactamase activity
Details: corrected for cell density; screen at 10 μg/ml final, 6 hours, 35° C.; negative = induction
Where a SMILES comes first, the peptide text is derived from it. The star is where a group is joined. Cbz = O=C(OCc1ccccc1)*
Give the value, in units of %, as a plain number.

INPUT: Return reported β-Lactamase inhibition for target or system Agr P3 promoter, item CC(CS)=NOC(=O)c1c(-c2ccccc2)noc1C .
OUTPUT: 77

INPUT: Return reported β-Lactamase inhibition for target or system Agr P3 promoter, item CN(C)/C=C/C(=O)c1sc(SCc2ccc(Cl)cc2)c2c1CC(C)(C)CC2=O .
OUTPUT: 83

INPUT: Return reported β-Lactamase inhibition for target or system Agr P3 promoter, item O=C(O)/C=C/c1ccc(Sc2ccc(Br)cc2)c([N+](=O)[O-])c1 .
OUTPUT: 78

INPUT: Return reported β-Lactamase inhibition for target or system Agr P3 promoter, item O=C(Nc1ccccc1)OC(Cc1ccccc1)C(F)(F)F (centres unmarked) .
OUTPUT: 84

INPUT: Return reported β-Lactamase inhibition for target or system Agr P3 promoter, item CC(C)CC(NC(=O)OCc1ccccc1)C(=O)NC(Cc1ccc(O)cc1)C(N)=O (stereo not drawn) [Compound 7] (Cbz-Leu-Tyr-NH2; configuration not given here) .
OUTPUT: 87

INPUT: Return reported β-Lactamase inhibition for target or system Agr P3 promoter, item CC(=O)OC1CCC2(C)C(CCC3C4CC5OC6(CCC(C)CO6)C(C)C5C(C)=C4CC32)C1 (centres unmarked) .
OUTPUT: -111

INPUT: Return reported β-Lactamase inhibition for target or system Agr P3 promoter, item Cc1ccc(NN=C(C#N)C(=O)c2cc(C)nn2C(C)(C)C)cc1 .
OUTPUT: 75

INPUT: Return reported β-Lactamase inhibition for target or system Agr P3 promoter, item O=C1OC(c2cccnc2Sc2ccc(Cl)cc2)=NC1=Cc1ccc(C(F)(F)F)cc1 .
OUTPUT: 75
